assay: chemical genetic growth profiling, strain panel (AID 1159580);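 note: tested at 20 µM; growth read once vehicle control cultures reached saturation at 30 °C; 1 = growth at the plate median or of vehicle wells; lower values mean less growth of the strain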; details: S. cerevisiae deletion strains, growth OD, locus YKL101W, strain HSL1
Hit rate of the full screen: of about 5,500 compounds, about 2,000 (36%) were called active. About 18% were inconclusive and are not listed. Cut-off read from the data, not from the text of the source: active = normalized growth mostly below about 0.91 (no sharp cut-off); inconclusive = no clear call, values can overlap the other calls; inactive = mostly above about 0.92. The list shows a part of the results.
Hi! Could you answer with just one of these? active, inactive

Query: Recorded test outcome, item O=C(Nc1cc(Cl)cc(Cl)c1)c1cc(Cl)ccc1O
Result: inactive

Query: Could you please tell me the result logged for N#CC(C(=O)Nc1cccc(C(F)(F)F)c1)C(=S)Nc1ccccc1Cl (stereo not given) in this assay?
Result: inactive

Query: Test call, this compound: O=C(Nc1ccc(F)cc1F)c1cc(Cl)ccc1O
Result: inactive

Query: Lab log entry: COc1cc(C2SCCS2)cc(Br)c1OC(=O)NC(=O)c1c(Cl)cccc1Cl — outcome as called in the assay?
Result: inactive

====

test: chemical genetic growth profiling, strain panel (AID 1159580); details: S. cerevisiae deletion strains, growth OD, locus YHR030C, strain SLT2
In all, about 5,500 compounds went through this assay and about 2,000 (36%) were called active. Not shown: some 18% with an inconclusive outcome. No stated cut-off is given here; in the data, active means normalized growth mostly below about 0.91 (no sharp cut-off); inconclusive means no clear call, values can overlap the other calls; inactive means mostly above about 0.92. This is one part of the list.
Respond with a class label; see YES = active, NO = inactive

CC(C)Sc1c(Cl)cccc1NC(=O)Nc1cccc(C(F)(F)F)c1 | YES
Cc1ccc(NC(=S)C(C#N)C(=O)N2CCCC2)c(C)c1 (stereo unspecified) | NO
CC(C)Sc1c(Cl)cccc1NC(=O)Nc1ccccc1 | YES
N#Cc1cc(I)c(C#N)c(I)c1 | NO
Cc1cc(NC(=O)Nc2cccc(C(F)(F)F)c2)n(C)n1 | NO

Query: Answer briefly: the call reported for C=CC[C@@H]1/C=C(\C)C[C@H](C)C[C@H](OC)[C@H]2O[C@@](O)(C(=O)C(=O)N3CCCC[C@H]3C(=O)O[C@H](/C(C)=C/[C@@H]3CC[C@@H](O)[C@H](OC)C3)[C@H](C)[C@@H](O)CC1=O)[C@H](C)C[C@@H]2OC in this assay.
Result: YES

====

Each entry below lists one item and its recorded normalized growth value.
test: chemical genetic growth profiling, strain panel (AID 1159580); details: S. cerevisiae deletion strains, growth OD, locus YPL055C, strain LGE1, hits give low values
The campaign covered roughly 5,500 compounds. About 2,000 (36%) were called active. Roughly 18% stayed inconclusive and do not appear here. This is one part of the list.
Number only, please.

Sample records with normalized growth:
NS(=O)(=O)c1cc2c(cc1Cl)NCNS2(=O)=O | 1.02
N=C(N)SCc1c(F)cccc1Cl | 0.956
COC(=O)CC1C(C)(C)C(=O)C2CC3(O)C4=CC(=O)OC(c5ccoc5)C4(C)CCC3C1(C)C2=O (stereo unspecified) | 0.994
Oc1cc2c(cc1O)C(c1ccccc1)CNCC2 (stereo unspecified) | 0.948
O=[N+]([O-])c1cc(Cl)c(Sc2ccccc2)cc1Sc1ccccc1 | 1.01

Query: Supply normalized growth value. Item: O=C(O)c1ccccc1Sc1c(C(=O)O)cc([N+](=O)[O-])cc1[N+](=O)[O-]
Result: 1.02

====

assay: chemical genetic growth profiling, strain panel (AID 1159580); details: S. cerevisiae deletion strains, growth OD, locus YEL003W, strain gim4
Screen size: about 5,500 compounds; about 2,000 (36%) were called active. Inconclusive results (about 18%) are left out. No stated cut-off is given here; in the data, active means normalized growth mostly below about 0.91 (no sharp cut-off); inconclusive means no clear call, values can overlap the other calls; inactive means mostly above about 0.92. The list shows a part of the results.
Please reply with one of these outcomes: active, inactive

Worked examples follow.
C/C(=C\CO)CC[C@H](C)CCC[C@H](C)CCCC(C)C | active
CC(C)CCCC(C)N (centres undefined) | inactive
CN1CCCCC1c1ccc(-c2cccnc2)nc1 (centres undefined) | inactive
COC(=O)CC1C(C)(C(=O)c2ccoc2)CC2OCC34C(CC(=O)OC)C5(C)CC36OC3(C)OC1(C(OC(C)=O)C6(OC(C)=O)C5OC(=O)C(C)C)C24O3 (centres undefined) | inactive
O=c1c(O)c(-c2ccc(O)cc2)oc2ccccc12 | active
CCCC(=O)Nc1ccc(OCC(O)CNC(C)C)c(C(C)=O)c1 (centres undefined) | inactive
CC(C)[C@@H]1CC[C@@H](C)CC1=O | inactive
CC[C@H]1OC(=O)[C@H](C)[C@@H](O[C@H]2C[C@@](C)(OC)[C@@H](O)[C@H](C)O2)[C@H](C)[C@@H](O[C@@H]2O[C@H](C)C[C@H](N(C)C)[C@H]2O)[C@](C)(O)C[C@@H](C)/C(=N/OCOCCOC)[C@H](C)[C@@H](O)[C@]1(C)O | inactive
CC(=O)Nc1c(I)cc(I)c(C(=O)O)c1I | inactive
Cn1c(=O)[nH]c2nc[nH]c2c1=O | inactive

Query: What is the recorded call for this compound in the test? CNC(=O)N(C)c1nnc(C(C)(C)C)s1
Result: inactive

Query: Just curious, what result did O=C(N[C@@H](CO)[C@H](O)c1ccc([N+](=O)[O-])cc1)C(Cl)Cl get here?
Result: inactive

Query: # lookup: test call for CCCCCCCCCCCCCCCC(=O)OC[C@H](NC(=O)C(Cl)Cl)[C@H](O)c1ccc([N+](=O)[O-])cc1
Result: inactive

Query: What call does the record list for CC(C)Cn1c(=O)n(C)c(=O)c2[nH]cnc21 ?
Result: inactive

Query: Record request — test call for CCCc1ncc(C[n+]2ccccc2C)c(N)n1
Result: inactive

Query: Dear all, I need the recorded test outcome for CCC1(C2=NCCN2)Cc2ccccc2O1 (centres undefined) , thank you.
Result: inactive

====

Each record here notes measured normalized growth.
assay: chemical genetic growth profiling, strain panel (AID 1159580); settings: S. cerevisiae deletion strains, growth OD, locus YNL197C, strain WHI3, hits give low values
About 2,000 (36%) of roughly 5,500 compounds were called active. Inconclusive results (about 18%) are left out. The list shows a part of the results.
Please respond with just the number, no unit label.

c1cnc2c(c1)ccc1cccnc12 | 0.0905
CNC(=O)c1cc2c(cn1)[nH]c1ccccc12 | 0.983
CC1=C(C)C(=O)C(CCCCC#CCCCC#CCO)=C(C)C1=O | 0.997

Kindly review the next molecule as well.
Query: Indicate the recorded normalized growth value for this molecule: Cn1c(=O)c2c(ncn2C)n(C)c1=O
Result: 1.12

====

assay: chemical genetic growth profiling, strain panel (AID 1159580);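 note: tested at 20 µM; growth read once vehicle control cultures reached saturation at 30 °C; 1 = growth at the plate median or of vehicle wells; lower values mean less growth of the strain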; conditions: S. cerevisiae deletion strains, growth OD, locus YOR329C, strain SCD5, hits give low values
The whole screen tested about 5,500 compounds, of which about 2,000 (36%) were called active. Inconclusive results (about 18%) are left out. Some of the results follow.
Experimental endpoint: normalized growth
Lab note: jot down the number only; don't add units.

As a guide, the following entries are already answered.
N#CC(C(=O)Nc1cccc(C(F)(F)F)c1)C(=S)Nc1ccccc1Cl (stereo unspecified) | 0.997
COC(=O)c1cc(I)c(OC(C)=O)c(I)c1 | 0.963
CC(C)Sc1c(Cl)cccc1NC(=O)Nc1ccccc1 | 0.966
CC(C)Sc1c(Cl)cccc1NC(=O)Nc1cccc(C(F)(F)F)c1 | 0.98
O=C(Nc1cc(Cl)cc(Cl)c1)c1cc(Cl)ccc1O | 0.939

Now turn to the next molecule.
Query: Fill in reported normalized growth for this entry: COc1cc(C2SCCS2)cc(Br)c1OC(=O)NC(=O)c1c(Cl)cccc1Cl
Result: 0.956

====

assay: chemical genetic growth profiling, strain panel (AID 1159580);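 note: tested at 20 µM; growth read once vehicle control cultures reached saturation at 30 °C; 1 = growth at the plate median or of vehicle wells; lower values mean less growth of the strain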; conditions: S. cerevisiae deletion strains, growth OD, strain wtn01, hits give low values
About 2,000 (36%) of roughly 5,500 compounds were called active. About 18% were inconclusive and are not listed. Some of the results follow.
Rule: measured normalized growth below 1 gets y; anything equal to or greater than 1 gets n.

Past entries and their recorded results:
CC(=O)OC1CCC2(O)CC1(C)CCC1C2CC1(C)C (configuration not stated) | y
ClC1C(Cl)C(Cl)C(Cl)C(Cl)C1Cl (configuration not stated) | y

Query: Input Cn1c(=O)c2c(ncn2C)n(C)c1=O ; condition: normalized growth strictly below 1. Does it hold?
Result: n

Query: Please check: normalized growth for Cn1c(=O)c2c(ncn2CCO)n(C)c1=O , strictly under 1 or not?
Result: n

====

Reported normalized growth values follow for various compounds
experiment: chemical genetic growth profiling, strain panel (AID 1159580);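 note: tested at 20 µM; growth read once vehicle control cultures reached saturation at 30 °C; 1 = growth at the plate median or of vehicle wells; lower values mean less growth of the strain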; settings: S. cerevisiae deletion strains, growth OD, locus YOR265W, strain rbl2, hits give low values
Out of some 5,500 compounds screened, about 2,000 (36%) were called active. Another 18% or so got no clear call; they are omitted. Some of the results follow.
Lab note: record just the number, no unit beside it.

CC(=O)OC1CCC23CC1(C)CCC2C(C)(C)CC3OC(C)=O (stereo not given) | 1.02

Query: Give recorded normalized growth. CC(=O)Nc1c(I)cc(I)c(C(=O)O)c1I
Result: 0.98

Query: Output measured normalized growth for this item: C[C@H]1C(=O)CCC2[C@]3(C)CC[C@@]4(C)C5CC(C)(C)CC[C@]5(C)CC[C@]4(C)C3CC[C@@]21C (stereo not given in full)
Result: 0.993

Query: Return the recorded normalized growth value; entry: CC(=O)OC1CCC2(O)CC1(C)CCC1C2CC1(C)C (stereo not given)
Result: 1.02

Query: Assign normalized growth to the following record: CC(=O)OC[C@@]1(O)C[C@@]23CCC4c5ccoc5CC[C@]4(C)C2CC[C@@H]1C3 (stereo not given in full)
Result: 1.01
